# assay-explanation: total protein half-life in vivo (active degradation + dilution); higher = more stable protein
# condition-notes: wild type E. coli NCM3722; growth: C-lim chemostat; doubling time 12 h
Please use Criterion met whenever total protein half-life in vivo is not below 7 h, and Criterion not met whenever it is.

Request: # check: total protein half-life in vivo of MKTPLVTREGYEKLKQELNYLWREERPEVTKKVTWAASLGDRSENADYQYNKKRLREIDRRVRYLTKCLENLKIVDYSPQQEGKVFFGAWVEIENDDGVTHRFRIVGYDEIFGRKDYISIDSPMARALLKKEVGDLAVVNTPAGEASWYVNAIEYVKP is greater than or equal to 7 h
Response: Criterion met

Request: Quick check: does MTITSLDGYRWLKNDIIRGNFQPDEKLRMSLLTSRYALGVGPLREALSQLVAERLVTVVNQKGYRVASMSEQELLDIFDARANMEAMLVSLAIARGGDEWEADVLAKAHLLSKLEACDASEKMLDEWDLRHQAFHTAIVAGCGSHYLLQMRERLFDLAARYRFIWLRRTVLSVEMLEDKHDQHQTLTAAVLARDTARASELMRQHLLTPIPIIQQAMAGN have total protein half-life in vivo greater than or equal to 7 h?
Response: Criterion not met

Request: Hi, just wondering whether MMQPSIKPADEHSAGDIIARIGSLTRMLRDSLRELGLDQAIAEAAEAIPDARDRLYYVVQMTAQAAERALNSVEASQPHQDQMEKSAKALTQRWDDWFADPIDLADARELVTDTRQFLADVPAHTSFTNAQLLEIMMAQDFQDLTGQVIKRMMDVIQEIERQLLMVLLENIPEQESRPKRENQSLLNGPQVDTSKAGVVASQDQVDDLLDSLGF [P0A9H9] shows total protein half-life in vivo of 7 h or higher.
Response: Criterion not met

Request: Dear colleague, could you confirm whether MKKLKLHGFNNLTKSLSFCIYDICYAKTAEERDGYIAYIDELYNANRLTEILSETCSIIGANILNIARQDYEPQGASVTILVSEEPVDPKLIDKTEHPGPLPETVVAHLDKSHICVHTYPESHPEGGLCTFRADIEVSTCGVISPLKALNYLIHQLESDIVTIDYRVRGFTRDINGMKHFIDHEINSIQNFMSDDMKALYDMVDVNVYQENIFHTKMLLKEFDLKHYMFHTKPEDLTDSERQEITAALWKEMREIYYGRNMPAV [P0A7F6] has total protein half-life in vivo at or above 7 h?
Response: Criterion met

Request: // inclusive: total protein half-life in vivo at least 7 h? input: MRYSKLTMLIPCALLLSACTTVTPAYKDNGTRSGPCVEGGPDNVAQQFYDYRILHRSNDITALRPYLSDKLATLLSDASRDNNHRELLTNDPFSSRTTLPDSAHVASASTIPNRDARNIPLRVDLKQGDQGWQDEVLMIQEGQCWVIDDVRYLGGSVHATAGTLRQSIENR
Response: Criterion met

Request: I'd appreciate it if you could say whether MMVIRPVERSDVSALMQLASKTGGGLTSLPANEATLSARIERAIKTWQGELPKSEQGYVFVLEDSETGTVAGICAIEVAVGLNDPWYNYRVGTLVHASKELNVYNALPTLFLSNDHTGSSELCTLFLDPDWRKEGNGYLLSKSRFMFMAAFRDKFNDKVVAEMRGVIDEHGYSPFWQSLGKRFFSMDFSRADFLCGTGQKAFIAELMPKHPIYTHFLSQEAQDVIGQVHPQTAPARAVLEKEGFRYRNYIDIFDGGPTLECDIDRVRAIRKSRLVEVAEGQPAQGDFPACLVANENYHHFRVVLVRTDPATERLILTAAQLDALKCHAGDRVRLVRLCAEEKTA [P0AE37] has total protein half-life in vivo at least equal to 7 h.
Response: Criterion met
